# Test system: YybT
# assay.procedure: Drug metabolism assessed as recombinant Bacillus subtilis YybT-mediated compound hydrolysis by measuring half life at 100 uM by reversed-phase HPLC method
# Assay type: ADME
# assay.conditions: recombinant Bacillus subtilis YybT enzyme
readout.kind: half-life at 100 µM (h)
Form entry: value (h) — number only.

Incoming: Look up half-life at 100 µM for this molecule: Nc1ncnc2c1ncn2[C@@H]1O[C@@H]2CO[P@@](=O)(O)O[C@H]3[C@@H](O)[C@H](n4cnc5c(N)ncnc54)O[C@@H]3CO[P@@](=O)(O)O[C@H]2[C@H]1O
Outgoing: 1
